Values compiled from patent US8901304B1.

So I've got a bunch of compounds here, and I need their melting point values.

Indicate its recorded melting point; the compound in question is `O=c1[nH]c2ccc(C3CCN(Cc4cncc(-c5ccccc5)c4)CC3)cc2[nH]1`
236 to 237 °C

Read the entry `O=c1[nH]c2ccc(N3CCN(Cc4cccc(C5=CCCC5)c4)CC3)cc2[nH]1` and write its reported melting point.
244 to 245 °C

Identify the reported melting point for the following entry. `O=c1[nH]c2ccc(C3CCN(Cc4cncc(C5=CCCC5)c4)CC3)cc2[nH]1`
249 to 250 °C

Tell us which melting point value is on record for `O=c1[nH]c2ccc(N3CCN(Cc4cncc(-c5ccc(F)cc5)c4)CC3)cc2[nH]1`
246 to 247 °C

Tell me melting point reported for `O=c1[nH]c2ccc(C3CCN(Cc4ccc(-c5ccccc5)cc4)CC3)cc2[nH]1`
> 260 °C

Please report melting point for the following compound: `O=c1[nH]c2ccc(N3CCN(Cc4ccc(-c5ccccc5)cc4)CC3)cc2[nH]1`
> 260 °C

Identify melting point associated with the compound `O=c1[nH]c2ccc(N3CCN(Cc4cncc(C5=CCCC5)c4)CC3)cc2[nH]1`
255 to 256 °C

Report melting point for O=c1[nH]c2ccc(N3CCN(CC4(F)C=CC(c5ccccc5)=CC4)CC3)cc2[nH]1 (centres unmarked)
> 260 °C
